ASSAY NOTES: splicing luciferase reporter signal modulators, primary screen, spliceosome inhibition project, cell-based, HEK293, splice +/- reporter (AID 1101);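 also: HEK293 cells carrying a splicing-competent luciferase reporter gene; test concentration not given here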
TEST CONTEXT: luminescence, 24 h, higher = more signal, called active from +8 up or from −8 down
PARAMETER MEASURED: z-score
Numbers only.

Solved cases (5 shown):
COMPOUND	PARAMETER MEASURED	RESULT
NCCCCCCNC(=O)[C@@H]1C[C@@H]2C(=O)N[C@@H](CCCCN)C(=O)N2[C@@H]1c1cccc(OCCO)c1	z-score	-0.615
Cc1cc(C)c(C(O)C2C=CC3C(=O)N(c4ccccc4)C(=O)C3N2Nc2ccc(C(C)C)cc2)c(C)c1 (stereo not drawn)	z-score	-0.00156
O=C1NC(=O)C2C1C=CC(C(O)c1c(F)cccc1Cl)N2Nc1ccc(Cl)cc1Cl (stereo not drawn)	z-score	1.57
O=C1OCC=C[C@H]2OC34C=CCN(c5ccc(Cl)cc5)C(=O)[C@H]3N(CCO)C(=O)[C@@H]4[C@@H]12 (stereo partly drawn)	z-score	0.169
CCOC(=O)C[C@H]1[C@H](OC(=O)c2cc3ccccc3oc2=O)[C@@H](NC(=O)c2ccc(-c3ccccc3)cc2)c2cc(OCCCO)ccc2N1C(=O)c1ccc2ccccc2n1	z-score	-0.338

Record z-score per entry; entries follow.
1. O=C1O[C@@H](c2ccccc2)[C@@H](c2ccccc2)N2[C@@H](c3ccc(OCCO)cc3)[C@]3(C(=O)Nc4ccccc43)[C@@H](C(=O)O)[C@H]12
2. COC(=O)[C@@]1(Cc2ccc(F)cc2)[C@H]2c3cc(C(=O)N(C)C)n(CCc4ccc(O)c(OC)c4)c3C[C@H]2CN1C(=O)c1ccccc1
3. Cc1cc(C)cc(N2C(=O)CSC2c2cccc([N+](=O)[O-])c2)c1 (stereo not drawn)
4. CCCCCCc1nc(C2CC2)cc2c1[Si](C(C)C)(C(C)C)O[C@H]2c1ccccc1
5. CC(C)OC(=O)C=C1C[C@@H](c2ccc(C(F)(F)F)cc2)O[C@@H](c2ccc(C(F)(F)F)cc2)O1
6. CCCCC(=C=CC[C@@H](O)c1ccccc1OCCO)C[C@@H](O)COCc1ccccc1
7. CN1C(=O)C2C=CC(C(O)c3ccccn3)N(N(c3ccccc3)c3ccccc3)C2C1=O (stereo not drawn)

A.
[-0.715, 0.655, 1.07, 0.214, -1.55, -0.705, 0.527]

---

ASSAY NOTES: RPMI8226 myeloma cell viability, profiling panel, resazurin fluorescence, basal, 24 h, PK04 Diversity Set (AID 1180);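 also: RPMI8826 multiple myeloma cell line at 5000 cells per well; test concentration not given here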
TEST CONTEXT: higher = more signal
PARAMETER MEASURED: z-score

Use these answered entries as a reference point.
COMPOUND	z-score
O=C1O[C@@H](c2ccccc2)[C@@H](c2ccccc2)N2[C@@H](c3ccc(OCCO)cc3)[C@]3(C(=O)Nc4ccccc43)[C@@H](C(=O)O)[C@H]12	0.441
COc1ccc([Si](C)(C)[C@@H]2[C@@H](CC(=O)N3Cc4ccccc4C[C@H]3CO)O[C@]3(C(=O)N(Cc4cccc(N5C(=O)c6cccc7cccc5c67)c4)c4ccccc43)[C@H]2C)cc1	-0.711
CC(C)(C)OC(=O)CC[C@@]1(C(=O)NCc2ccccc2)N=C(c2ccc(OCCCO)cc2)O[C@@H]1c1ccccc1N=[N+]=[N-]	-0.362
NCCCCCNC(=O)[C@@H]1C[C@@H]2C(=O)NCC(=O)N2[C@@H]1c1cccc(OCCO)c1	0.974
COC(=O)[C@@]1(Cc2ccccc2)[C@H]2c3cc(C(=O)N(C)C)n(Cc4c(CO)[nH]cc(C)c4=O)c3C[C@H]2CN1C(=O)c1ccccc1	0.0961

For the 6 compounds below, give their z-score values.
1. O[C@@H](Cc1ccccc1)[C@@H](/C=C/C1CC1)N(CC#Cc1ccccc1)Cc1cccc(Cl)c1
2. Cc1ccc(S[C@]2(C(=O)O)CC(=O)N(C3Cc4ccccc4C3)[C@@H]2c2ccc(CO)cc2)cc1
3. C=C(C)c1cc2c(c(CCCCCC)n1)[Si](C(C)C)(C(C)C)OC2
4. COCCOC(=O)N1C(=O)[C@@]2(c3cc(C#Cc4ccc(OC)cc4)ccc31)[C@H](c1ccc(O)cc1)N1[C@H](c3ccccc3)[C@H](c3ccccc3)OC(=O)[C@H]1[C@@H]2C(=O)N1CCCCCCC1
5. C=C(/C(=C/C[C@H](OC(C)=O)c1ccccc1OCCO)c1cc(C(=O)OC)ccc1OC)C(C)C
6. CC1=C[C@@]2(CO)C(=O)[C@]3(CO3)[C@@H]1[C@H]1[C@]2(C)C=C(CO)C(=O)[C@]12CO2

A.
[2.06, -0.396, 0.16, -0.332, 0.0967, 0.483]

// for each compound below, give its z-score
1. C[N+](C)(C)CCCCCCNC(=O)[C@H]1C[C@H]2C(=O)NCC(=O)N2[C@H]1c1ccc(O)cc1
2. C=C(C)C1CCC(C(O)C2C=CC3C(=O)N(C)C(=O)C3N2N2CCCCC2)CC1 (stereo not drawn)

A.
[-0.116, -0.954]
